Reported Ki is given for each of the following compounds.
biological target: FLT-3 (Homo sapiens, UniProt P36888); assay: FLT-3 inhibition assay, radiometric filter-binding; format: biochemical
Sequence (P36888 27-993, species assumed): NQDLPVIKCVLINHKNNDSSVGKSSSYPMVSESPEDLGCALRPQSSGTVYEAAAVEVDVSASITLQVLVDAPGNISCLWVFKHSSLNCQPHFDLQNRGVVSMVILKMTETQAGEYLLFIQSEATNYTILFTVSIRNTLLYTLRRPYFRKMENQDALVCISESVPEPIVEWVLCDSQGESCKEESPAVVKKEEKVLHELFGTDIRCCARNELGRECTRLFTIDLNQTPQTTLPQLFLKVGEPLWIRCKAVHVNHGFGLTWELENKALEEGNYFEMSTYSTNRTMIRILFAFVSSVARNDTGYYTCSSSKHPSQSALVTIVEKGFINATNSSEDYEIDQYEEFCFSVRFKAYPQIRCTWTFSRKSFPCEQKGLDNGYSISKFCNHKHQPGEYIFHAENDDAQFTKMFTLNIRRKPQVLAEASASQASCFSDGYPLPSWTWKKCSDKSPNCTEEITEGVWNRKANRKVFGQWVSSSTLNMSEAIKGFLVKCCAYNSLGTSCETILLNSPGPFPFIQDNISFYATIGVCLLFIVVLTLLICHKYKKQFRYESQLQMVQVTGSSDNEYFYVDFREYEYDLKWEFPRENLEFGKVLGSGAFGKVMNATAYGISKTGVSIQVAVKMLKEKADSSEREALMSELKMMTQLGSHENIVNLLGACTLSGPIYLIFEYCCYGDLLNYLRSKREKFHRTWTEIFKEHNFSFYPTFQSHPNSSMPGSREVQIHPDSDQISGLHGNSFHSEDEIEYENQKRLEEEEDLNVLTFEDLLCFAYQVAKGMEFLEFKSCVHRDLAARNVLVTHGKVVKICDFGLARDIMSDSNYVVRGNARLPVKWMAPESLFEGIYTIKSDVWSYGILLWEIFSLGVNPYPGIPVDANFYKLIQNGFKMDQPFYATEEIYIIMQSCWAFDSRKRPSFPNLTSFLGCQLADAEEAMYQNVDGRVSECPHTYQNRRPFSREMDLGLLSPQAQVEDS

{"compound": "Cc1cnc(Nc2cc(N3CC(F)(C4CC4)C3)nc(Oc3ccc(NC(=O)CC(F)(F)F)cc3)n2)s1", "Ki": "≤ 50 nM"}
{"compound": "Cc1cc(Nc2cc(N3CC(C)(O)C3)nc(Sc3ccc(NC(=O)c4ccccc4C(F)(F)F)cc3)n2)[nH]n1", "Ki": "50 to 150 nM"}
{"compound": "Cc1cc(Nc2cc(N3CCC3)nc(Sc3ccc(NC(=O)c4c(F)cccc4N4CCC4)cc3)n2)n[nH]1", "Ki": "50 to 150 nM"}
{"compound": "Cc1cc(Nc2cc(N3CCC3)nc(Sc3ccc(NC(=O)OC(C)(C)C)cc3)n2)n[nH]1", "Ki": "50 to 150 nM"}
{"compound": "Cc1cc(Nc2cc(N3CCC3)nc(Oc3ccc(NC(=O)c4ccccc4C(F)(F)F)cc3)n2)[nH]n1", "Ki": "50 to 150 nM"}
{"compound": "Cc1cc(Nc2cc(N3CC(N4CCOCC4)C3)nc(Sc3ccc4c(c3)CN(CC(F)(F)F)C4=O)n2)[nH]n1", "Ki": "≤ 50 nM"}
{"compound": "CCC(=O)Nc1ccc(Sc2nc(Nc3cc(C)[nH]n3)cc(N3CC(O)C3)n2)cc1", "Ki": "50 to 150 nM"}
{"compound": "Cc1cc(Nc2cc(N3CCC3)nc(Sc3ccc(N(C)C(=O)c4c(F)cccc4F)cc3)n2)n[nH]1", "Ki": "150 to 1000 nM"}
{"compound": "Cc1cc(Nc2cc(N3CCC3)nc(Sc3ccc(C(=O)N4CCCC4)cc3)n2)n[nH]1", "Ki": "50 to 150 nM"}
{"compound": "Cc1cc(Nc2cc(N3CC(F)(C4CC4)C3)nc(Sc3cnc4ccccc4c3)n2)[nH]n1", "Ki": "≤ 50 nM"}
{"compound": "Cc1ccc2cc(Sc3nc(Nc4cc(C)[nH]n4)cc(N4CC(C5CCC(F)C5)C4)n3)ccc2n1 (stereo not shown)", "Ki": "50 to 150 nM"}
{"compound": "Cc1cc(Nc2cc(N3CCC3)nc(Sc3ccc(NC(=O)NCc4ccccc4)cc3)n2)n[nH]1", "Ki": "50 to 150 nM"}
{"compound": "Cc1cc(Nc2cc(N3CCC3)nc(Sc3ccc(NC(=O)Cc4ccccc4)cc3)n2)n[nH]1", "Ki": "50 to 150 nM"}
{"compound": "Cc1ccc(S(=O)(=O)Nc2ccc(Sc3nc(Nc4cc(C)[nH]n4)cc(N4CCC4)n3)cc2)cc1", "Ki": "50 to 150 nM"}
{"compound": "CC(=O)Nc1cccc(Sc2nc(Nc3cc(C)n[nH]3)cc(N3CC(F)(C4CC4)C3)n2)c1", "Ki": "50 to 150 nM"}
{"compound": "COC1CN(c2cc(Nc3cc(C)n[nH]3)nc(Sc3ccc(NC(=O)c4ccccc4C(F)(F)F)cc3)n2)C1", "Ki": "50 to 150 nM"}
{"compound": "Cc1cc(Nc2cc(N3CCC3)nc(Sc3ccc(NC(=O)CC(F)(F)F)cc3)n2)n[nH]1", "Ki": "50 to 150 nM"}
{"compound": "CCC(=O)Nc1ccc(Sc2nc(Nc3cc(C)n[nH]3)cc(N3CC(OC)(C(C)(C)C)C3)n2)cc1", "Ki": "≤ 50 nM"}
{"compound": "Cc1ccc(C(=O)Nc2ccc(Sc3nc(Nc4cc(C)[nH]n4)cc(N4CCC4)n3)cc2)cc1", "Ki": "150 to 1000 nM"}
{"compound": "Cc1cc(Nc2cc(N3CC(O)(C4CC4)C3)nc(Sc3ccc4nc(C(F)(F)F)ccc4c3)n2)[nH]n1", "Ki": "50 to 150 nM"}
{"compound": "Cc1cc(Nc2cc(CN3CCC3)nc(Sc3ccc(NC(=O)c4ccccc4C(F)(F)F)cc3)n2)[nH]n1", "Ki": "150 to 1000 nM"}
{"compound": "COC1CN(c2cc(Nc3cc(C)[nH]n3)nc(Sc3ccc(NC(=O)c4ccccc4Cl)cc3)n2)C1", "Ki": "50 to 150 nM"}
{"compound": "Cc1cnc(Nc2cc(N3CC(N)C3)nc(Sc3ccc(NC(=O)C4CC4)cc3)n2)s1", "Ki": "≤ 50 nM"}
{"compound": "Cc1cc(Nc2cc(N3CCC3)nc(Sc3ccc4ccccc4c3)n2)n[nH]1", "Ki": "≤ 50 nM"}
{"compound": "Cc1cc(Nc2cc(N3CC(N4CC[C@H](F)C4)C3)nc(Sc3ccc(NC(=O)CC(F)(F)F)cc3)n2)[nH]n1", "Ki": "50 to 150 nM"}

----------
Reported pKi is given for each of the following compounds.
molecular target: Aurora-2 (Aurora A) (Homo sapiens); assay: Aurora-2 (Aurora A) inhibition assay, coupled enzyme; assay type: biochemical; settings: read-out: Aurora A kinase Ki value
Sequence (O14965 whole entry): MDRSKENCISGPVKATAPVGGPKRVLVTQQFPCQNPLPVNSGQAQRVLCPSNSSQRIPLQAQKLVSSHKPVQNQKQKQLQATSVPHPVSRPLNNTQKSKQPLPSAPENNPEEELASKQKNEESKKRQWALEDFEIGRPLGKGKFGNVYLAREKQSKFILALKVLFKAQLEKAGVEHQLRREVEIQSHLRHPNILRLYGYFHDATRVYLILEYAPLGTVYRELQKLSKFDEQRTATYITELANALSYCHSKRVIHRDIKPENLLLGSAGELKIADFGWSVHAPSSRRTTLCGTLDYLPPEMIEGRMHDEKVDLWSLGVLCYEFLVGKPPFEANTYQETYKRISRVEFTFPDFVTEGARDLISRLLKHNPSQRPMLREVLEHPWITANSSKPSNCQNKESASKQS
pKi: −log10 of the molar value.

{"compound": "CCC(=O)Nc1ccc(Sc2nc(Nc3cc(C)n[nH]3)cc(N3CC(N4CCOCC4)C3)n2)cc1", "pKi": "≥ 9.00"}
{"compound": "Cc1cc(Nc2nc(Sc3ccc(NC(=O)c4ccccc4Cl)cc3)nc(N3CCC3)c2F)[nH]n1", "pKi": "8.30 to 9.00"}
{"compound": "Cc1cc(Nc2cc(N3CC(N4CCCC4)C3)nc(Sc3ccc4ncccc4c3)n2)n[nH]1", "pKi": "8.30 to 9.00"}

----------
biological target: JAK3 (Homo sapiens); assay: biochemical
Sequence (P52333 whole entry, species assumed): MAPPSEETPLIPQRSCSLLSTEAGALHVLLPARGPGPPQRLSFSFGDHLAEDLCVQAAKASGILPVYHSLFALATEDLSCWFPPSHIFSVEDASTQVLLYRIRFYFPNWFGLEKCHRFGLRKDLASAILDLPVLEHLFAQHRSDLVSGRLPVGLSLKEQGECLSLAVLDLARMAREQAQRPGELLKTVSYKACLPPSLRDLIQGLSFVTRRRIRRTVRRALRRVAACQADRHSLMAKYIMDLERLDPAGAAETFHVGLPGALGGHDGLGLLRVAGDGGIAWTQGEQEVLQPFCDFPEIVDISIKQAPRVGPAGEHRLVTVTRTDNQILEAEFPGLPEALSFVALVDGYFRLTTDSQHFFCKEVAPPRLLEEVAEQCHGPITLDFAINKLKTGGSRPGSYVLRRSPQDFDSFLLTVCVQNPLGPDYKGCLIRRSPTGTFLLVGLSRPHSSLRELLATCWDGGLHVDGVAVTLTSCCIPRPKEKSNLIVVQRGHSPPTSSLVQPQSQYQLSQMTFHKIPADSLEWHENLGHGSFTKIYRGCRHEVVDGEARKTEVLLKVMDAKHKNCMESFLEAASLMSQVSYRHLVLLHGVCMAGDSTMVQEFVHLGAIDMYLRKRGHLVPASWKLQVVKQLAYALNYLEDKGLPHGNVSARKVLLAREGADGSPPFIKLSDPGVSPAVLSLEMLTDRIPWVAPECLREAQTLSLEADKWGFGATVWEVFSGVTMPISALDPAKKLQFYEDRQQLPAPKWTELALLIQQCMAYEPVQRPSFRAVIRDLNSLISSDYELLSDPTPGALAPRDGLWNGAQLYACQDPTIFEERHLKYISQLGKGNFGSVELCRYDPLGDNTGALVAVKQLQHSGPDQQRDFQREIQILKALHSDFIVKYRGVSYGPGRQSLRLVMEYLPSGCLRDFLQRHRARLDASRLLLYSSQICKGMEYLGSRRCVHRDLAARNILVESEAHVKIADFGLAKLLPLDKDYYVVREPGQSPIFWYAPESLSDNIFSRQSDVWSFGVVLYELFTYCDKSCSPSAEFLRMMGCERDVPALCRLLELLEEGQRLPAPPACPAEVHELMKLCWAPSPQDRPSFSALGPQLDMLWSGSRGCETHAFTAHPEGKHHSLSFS

{"compound": "Cc1cc(Nc2cc(N3CCC3)nc(Sc3ccc(NC(=O)c4c(F)cccc4N4CCC4)cc3)n2)n[nH]1", "targetOrTestSystem": "JAK3 (Homo sapiens)", "Ki": "10 to 500 nM"}
{"compound": "CCC(=O)Nc1ccc(Sc2nc(Nc3cc(C)n[nH]3)cc(N3CC(O)(C4CC4)C3)n2)cc1", "targetOrTestSystem": "JAK3 (Homo sapiens)", "Ki": "10 to 500 nM"}
{"compound": "Cc1cc(Nc2cc(N3CC(F)(C4CC4)C3)nc(Sc3ccc(NC(=O)CC(F)(F)F)cc3)n2)[nH]n1", "targetOrTestSystem": "JAK3 (Homo sapiens)", "Ki": "≤ 10 nM"}
{"compound": "CCC(=O)Nc1ccc(Sc2nc(Nc3cc(C)n[nH]3)cc(N3CC(C)(NC(C)(C)C)C3)n2)cc1", "targetOrTestSystem": "JAK3 (Homo sapiens)", "Ki": "10 to 500 nM"}
{"compound": "CCC(=O)Nc1ccc(Sc2nc(Nc3cc(C)n[nH]3)cc(N3CC(C)(OC(C)C)C3)n2)cc1", "targetOrTestSystem": "JAK3 (Homo sapiens)", "Ki": "10 to 500 nM"}
{"compound": "Cc1cc(Nc2cc(N3CC(F)(C4CC4)C3)nc(Sc3ccc(NS(C)(=O)=O)cc3)n2)[nH]n1", "targetOrTestSystem": "JAK3 (Homo sapiens)", "Ki": "≤ 10 nM"}
{"compound": "Cc1cc(Nc2cc(N3CC(O)(C4CC4)C3)nc(Sc3ccc4nc(C(F)(F)F)n(C)c4c3)n2)[nH]n1", "targetOrTestSystem": "JAK3 (Homo sapiens)", "Ki": "10 to 500 nM"}
{"compound": "CCC(=O)Nc1ccc(Sc2nc(Nc3cc(C4CC4)[nH]n3)cc(N3CC(O)(C4CC4)C3)n2)cc1", "targetOrTestSystem": "JAK3 (Homo sapiens)", "Ki": "≤ 10 nM"}
{"compound": "Cc1cc(Nc2cc(N3CC(F)(C4CC4)C3)nc(Sc3ccc(-c4ncc(C)o4)cc3)n2)[nH]n1", "targetOrTestSystem": "JAK3 (Homo sapiens)", "Ki": "10 to 500 nM"}
{"compound": "COC1CN(c2cc(Nc3cc(C)[nH]n3)nc(Sc3ccc(NC(=O)c4ccccc4Cl)cc3)n2)C1", "targetOrTestSystem": "JAK3 (Homo sapiens)", "Ki": "≤ 10 nM"}
{"compound": "CCC(=O)Nc1ccc(Sc2nc(Nc3cc(C)n[nH]3)cc(N3CC(C)(N4CCCC4)C3)n2)cc1", "targetOrTestSystem": "JAK3 (Homo sapiens)", "Ki": "10 to 500 nM"}
{"compound": "Cc1cc(Nc2cc(N3CC(O)(C4CC4)C3)nc(Sc3ccc4ccccc4c3)n2)n[nH]1", "targetOrTestSystem": "JAK3 (Homo sapiens)", "Ki": "≤ 10 nM"}
{"compound": "Cc1cc(Nc2cc(N3CCC3)nc(Sc3ccc(C(=O)NCc4ccccc4)cc3)n2)n[nH]1", "targetOrTestSystem": "JAK3 (Homo sapiens)", "Ki": "10 to 500 nM"}

----------
Reported pKi is given for each of the following compounds.
biological target: human Itk kinase (Homo sapiens, UniProt Q08881)
Sequence (Q08881 whole entry): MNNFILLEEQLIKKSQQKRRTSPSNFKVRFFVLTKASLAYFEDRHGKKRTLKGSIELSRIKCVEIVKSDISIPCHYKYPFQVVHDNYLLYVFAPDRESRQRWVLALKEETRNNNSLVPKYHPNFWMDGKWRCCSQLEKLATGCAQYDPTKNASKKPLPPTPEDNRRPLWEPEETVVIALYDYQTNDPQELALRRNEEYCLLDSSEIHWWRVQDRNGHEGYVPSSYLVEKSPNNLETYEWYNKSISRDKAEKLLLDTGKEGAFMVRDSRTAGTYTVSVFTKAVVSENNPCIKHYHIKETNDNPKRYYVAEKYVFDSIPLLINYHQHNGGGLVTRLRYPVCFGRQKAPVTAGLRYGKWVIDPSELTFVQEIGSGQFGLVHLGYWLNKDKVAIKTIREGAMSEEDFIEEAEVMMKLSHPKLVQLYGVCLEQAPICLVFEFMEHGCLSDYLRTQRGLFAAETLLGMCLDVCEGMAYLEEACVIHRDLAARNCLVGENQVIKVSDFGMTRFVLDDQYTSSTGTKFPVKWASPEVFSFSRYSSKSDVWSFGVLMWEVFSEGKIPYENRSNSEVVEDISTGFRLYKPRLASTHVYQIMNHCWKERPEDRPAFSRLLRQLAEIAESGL
pKi: −log10 of the molar value.
readoutName: pKi

{"compound": "Cc1cc(Nc2cc(N3CC(C)(O)C3)nc(Sc3ccc(NC(=O)c4ccccc4Cl)cc3)n2)[nH]n1", "experimentalValue": "≥ 7.00"}
{"compound": "CC(C)(C)c1cc(Nc2cc(N3CCC3)nc(Sc3ccc(NC(=O)c4ccccc4Cl)cc3)n2)n[nH]1", "experimentalValue": "5.70 to 6.00"}
{"compound": "CCc1cc(Nc2cc(N3CCC3)nc(Sc3ccc(NC(=O)c4ccccc4Cl)cc3)n2)n[nH]1", "experimentalValue": "≥ 7.00"}
{"compound": "Cc1cc(Nc2cc(N3CCC3)nc(Sc3ccc(NC(=O)Cc4ccccc4)cc3)n2)n[nH]1", "experimentalValue": "6.00 to 7.00"}
{"compound": "Cc1cc(Nc2cc(N3CCC3)nc(Sc3ccc(NC(=O)c4cccc(Cl)c4)cc3)n2)n[nH]1", "experimentalValue": "6.00 to 7.00"}
{"compound": "O=C(Nc1ccc(Sc2nc(Nc3cc(C4CC4)[nH]n3)cc(N3CCC3)n2)cc1)c1ccccc1Cl", "experimentalValue": "≥ 7.00"}
{"compound": "Cc1cc(Nc2cc(N3CCC3)nc(Sc3ccc(NC(=O)c4ccccc4OC(F)(F)F)cc3)n2)n[nH]1", "experimentalValue": "6.00 to 7.00"}
{"compound": "CCC(=O)Nc1ccc(Sc2nc(Nc3cc(C)n[nH]3)cc(N3CC(C)(NC(C)(C)C)C3)n2)cc1", "experimentalValue": "6.00 to 7.00"}
{"compound": "Cc1cc(Nc2cc(N3CC(C)C3)nc(Sc3ccc(NC(=O)c4ccccc4Cl)cc3)n2)n[nH]1", "experimentalValue": "≥ 7.00"}
{"compound": "Cc1cc(Nc2cc(N3CCC3)nc(Sc3ccc(NC(=O)Cc4ccccc4Cl)cc3)n2)[nH]n1", "experimentalValue": "6.00 to 7.00"}
{"compound": "Cc1cnc(Nc2cc(N3CC(N(C)C)C3)nc(Sc3ccc(NC(=O)C4CC4)cc3)n2)s1", "experimentalValue": "6.00 to 7.00"}
{"compound": "CC1=NN=C(Nc2cc(N3CCC3)nc(Sc3ccc(NC(=O)c4ccccc4Cl)cc3)n2)C1", "experimentalValue": "6.00 to 7.00"}
{"compound": "CCc1cccc(C(=O)Nc2ccc(Sc3nc(Nc4cc(C)[nH]n4)cc(N4CCC4)n3)cc2)c1Cl", "experimentalValue": "6.00 to 7.00"}
